# System: 171881-019-R-J1-PDC tumor spheroids, viability
# experiment_notes: Anticancer human tumor 171881-019-R-J1-PDC patient-derived invasive breast carcinoma cell line growth inhibition [GQUAD]
# experimental_setup: second compound 0.0316 µM; first compound 3.16 µM; stronger effect = lower value; spheroids with HUVEC and MSC
# viability, T/C values compiled below
Write the number in % without appending the unit.

O=c1[nH]cc(F)c(=O)[nH]1 + Cc1cnc(CNC(=O)c2c(=O)c3ccc(N4CCCN(C)CC4)nc3n3c2sc2ccccc23)cn1 = 54.5

Param readout= viability, T/C; system= 171881-019-R-J1-PDC tumor spheroids, viability; entry= Nc1ccn(C2OC(CO)C(O)C2(F)F)c(=O)n1 (configuration not stated) + Cc1cnc(CNC(=O)c2c(=O)c3ccc(N4CCCN(C)CC4)nc3n3c2sc2ccccc23)cn1 ; returns value.
33.7

Entry to check: Nc1ccn(C2OC(CO)C(O)C2(F)F)c(=O)n1 (configuration not stated) + CN(C)c1ccc(Nc2c3ccc(NC(=O)CCN4CCCC4)cc3nc3cc(NC(=O)CCN4CCCC4)ccc23)cc1
45.9

Record: C=CCn1c(=O)c2cnc(Nc3ccc(N4CCN(C)CC4)cc3)nc2n1-c1cccc(C(C)(C)O)n1 + Cc1[nH]c2ccc(F)cc2c1-c1nc2c3cccnc3c3ncccc3c2[nH]1
21.4

Another molecule to check: CC(C)(O)C1CCC(Nc2ccc3ncc(-c4cccc(C(F)(F)F)c4)n3n2)CC1 (configuration not stated) + Cc1[nH]c2ccc(F)cc2c1-c1nc2c3cccnc3c3ncccc3c2[nH]1
23.8

Would you kindly repeat that for CC1COCCN1c1cc(C2(O)CC3CCC(C2)O3)c2cnn(-c3ccn[nH]3)c2n1 (configuration not stated) + Cc1cnc(CNC(=O)c2c(=O)c3ccc(N4CCCN(C)CC4)nc3n3c2sc2ccccc23)cn1 ?
4.11

Okay, and O=C(NO)c1cnc(N2CCN(S(=O)(=O)c3ccc4ccccc4c3)CC2)nc1 + Cc1cnc(CNC(=O)c2c(=O)c3ccc(N4CCCN(C)CC4)nc3n3c2sc2ccccc23)cn1 ?
0.43

Input CC1COCCN1c1cc(C2(O)CC3CCC(C2)O3)c2cnn(-c3ccn[nH]3)c2n1 (configuration not stated) + Cc1[nH]c2ccc(F)cc2c1-c1nc2c3cccnc3c3ncccc3c2[nH]1
4.37

Another: O=c1[nH]cc(F)c(=O)[nH]1 + Cc1[nH]c2ccc(F)cc2c1-c1nc2c3cccnc3c3ncccc3c2[nH]1
47.7

What do you get for CC(C)n1c(=O)n(C)c2cnc3cc(F)c(-c4ccc(OCCCN5CCCCC5)nc4)cc3c21 + Cc1[nH]c2ccc(F)cc2c1-c1nc2c3cccnc3c3ncccc3c2[nH]1 ?
51.1

And for CC(C)(O)C1CCC(Nc2ccc3ncc(-c4cccc(C(F)(F)F)c4)n3n2)CC1 (configuration not stated) + Cc1cnc(CNC(=O)c2c(=O)c3ccc(N4CCCN(C)CC4)nc3n3c2sc2ccccc23)cn1 ?
18.2

Input CC1COCCN1c1cc(-c2ccnn2C)c2ccnc(-c3ccn[nH]3)c2n1 (configuration not stated) + Cc1cnc(CNC(=O)c2c(=O)c3ccc(N4CCCN(C)CC4)nc3n3c2sc2ccccc23)cn1
5.53

* * *

# System: 171881-019-R-J1-PDC tumor spheroids, viability
# experiment_notes: Anticancer human tumor 171881-019-R-J1-PDC cell line growth inhibition [GQUAD];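 also: spheroids exposed to compounds for 7 days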
# experimental_setup: curve of first compound; second compound 3.16 µM; spheroids with HUVEC and MSC
pIC50: −log10 of the molar value.
measured_property: pIC50

O=c1[nH]cc(F)c(=O)[nH]1 + Cc1cnc(CNC(=O)c2c(=O)c3ccc(N4CCCN(C)CC4)nc3n3c2sc2ccccc23)cn1 = < 5.00
COc1cc(C2c3cc4c(cc3C(OC3OC5COC(C)OC5C(O)C3O)C3COC(=O)C23)OCO4)cc(OC)c1O (stereo unspecified) + CN(C)c1ccc(Nc2c3ccc(NC(=O)CCN4CCCC4)cc3nc3cc(NC(=O)CCN4CCCC4)ccc23)cc1 = > 7.50
CC1COCCN1c1cc(-c2ccnn2C)c2ccnc(-c3ccn[nH]3)c2n1 (stereo unspecified) + Cc1[nH]c2ccc(F)cc2c1-c1nc2c3cccnc3c3ncccc3c2[nH]1 = > 7.50
C=CCn1c(=O)c2cnc(Nc3ccc(N4CCN(C)CC4)cc3)nc2n1-c1cccc(C(C)(C)O)n1 + Cc1cnc(CNC(=O)c2c(=O)c3ccc(N4CCCN(C)CC4)nc3n3c2sc2ccccc23)cn1 = 6.25
COc1cc(C2c3cc4c(cc3C(OC3OC5COC(C)OC5C(O)C3O)C3COC(=O)C23)OCO4)cc(OC)c1O (stereo unspecified) + Cc1[nH]c2ccc(F)cc2c1-c1nc2c3cccnc3c3ncccc3c2[nH]1 = > 7.50

What value of measured pIC50 is listed for C=CCn1c(=O)c2cnc(Nc3ccc(N4CCN(C)CC4)cc3)nc2n1-c1cccc(C(C)(C)O)n1 + Cc1[nH]c2ccc(F)cc2c1-c1nc2c3cccnc3c3ncccc3c2[nH]1 ?
> 7.50
